# maps each entry to its IC50
- Assayed system: HCV polymerase (NS5B) type 1a (Hepatitis C virus genotype 1a)
- Construct: made in house; host or cells: Escherichia coli (by the 'similar method' of the 1b enzyme)
- Experiment: Assay of enzyme (HCV polymerase) inhibitory activity, type 1a enzyme
- Type: biochemical, HCV type 1a (cloned from the blood of patients)
- Assay context: HCV polymerase inhibitory activity (IC50), 1a, type 1a enzyme 1.5 μg/ml, 25° C., 60 min
Value type: IC50

COc1ccc(S(=O)(=O)N2CCN(C(C)=O)C[C@@H]2C(=O)NCc2ccc(C(C)C)cc2)cc1-c1nn[nH]n1    100 to 1000 nM
CC(=O)N1CCN(S(=O)(=O)c2ccc(C(C)C)cc2)C(C(=O)NCc2ccc(N)cc2)C1 (centres unmarked)    > 1000 nM
CC(=O)N1CCN(S(=O)(=O)c2ccc3c(c2)OC(F)(F)C(F)(F)O3)[C@@H](C(=O)NCc2ccc(C(C)C)cc2)C1    100 to 1000 nM
CCCc1ccc(CNC(=O)[C@H]2CN(c3nc(C)c(C(=O)O)s3)CCN2S(=O)(=O)c2ccc(C(F)(F)F)cc2)cc1    < 100 nM
CCCc1ccc(CNC(=O)[C@H]2CN(c3nc(C)c(CN4CCCC4)s3)CCN2S(=O)(=O)c2ccc(OC(F)(F)F)cc2)cc1    < 100 nM
CCCc1ccc(CNC(=O)[C@H]2CN(C(=O)Cn3ncnn3)CCN2S(=O)(=O)c2ccc(OC(F)(F)F)cc2)cc1    < 100 nM
CCC(F)(F)c1ccc(CNC(=O)[C@H]2CN(C(=O)Nc3cc(C)ns3)CCN2S(=O)(=O)c2ccc(OC(F)(F)F)cc2)cc1    < 100 nM
CC(=O)N1CCN(S(=O)(=O)c2ccc(OC(F)(F)F)cc2)[C@@H](C(=O)NCc2ccc(-c3ccccn3)s2)C1    100 to 1000 nM
CCCc1ccc(CNC(=O)[C@H]2CN(c3cnc(C(=O)OC)c(NC(C)=O)n3)CCN2S(=O)(=O)c2ccc(OC(F)(F)F)cc2)cc1    < 100 nM
CC(=O)N1CCN(S(=O)(=O)c2ccc(C(C)C)cc2)[C@@H](C(=O)NCc2ccc(-c3csnn3)cc2)C1    > 1000 nM
Cc1csc(N2CCN(S(=O)(=O)c3ccc(C(C)C)cc3)C(C(=O)NCc3ccc(C(F)(F)F)cc3)C2)n1 (centres unmarked)    > 1000 nM
CC(C)c1ccc(S(=O)(=O)N2CCN(C(=O)CO)CC2C(=O)NCc2ccc(C(F)(F)F)cc2)cc1 (centres unmarked)    > 1000 nM
Cc1nc(N2CCN(S(=O)(=O)c3ccc(OC(F)(F)F)cc3)[C@@H](C(=O)NCc3ccc(N(C)C)nc3)C2)sc1C(=O)O    < 100 nM
CC(C)c1ccc(S(=O)(=O)N2CCN(C3=NCCO3)CC2C(=O)NCc2ccc(C(F)(F)F)cc2)cc1 (centres unmarked)    > 1000 nM
CC(C)c1ccc(CNC(=O)[C@H]2CN(c3n[nH]c(C(=O)O)c3Cl)CCN2S(=O)(=O)c2ccc(C(F)(F)F)cc2)cc1    > 1000 nM
Cc1cc(N2CCN(S(=O)(=O)c3ccc(OC(F)(F)F)cc3)[C@@H](C(=O)NCc3ccc(C(C)C)cc3)C2)n[nH]1    100 to 1000 nM
CCC(F)(F)c1ccc(CNC(=O)[C@H]2CN(C(=O)Nc3nn[nH]n3)CCN2S(=O)(=O)c2ccc(OC(F)(F)F)cc2)cc1    100 to 1000 nM
CCC(F)(F)c1ccc(CNC(=O)[C@H]2CN(C(=O)Cc3cc(C)no3)CCN2S(=O)(=O)c2ccc(OC(F)(F)F)cc2)cc1    < 100 nM
COC(=O)CCC(=O)N1CCN(S(=O)(=O)c2ccc(C(F)(F)F)cc2)[C@@H](C(=O)NCc2ccc(C(C)C)cc2)C1    100 to 1000 nM
CC(C)(C)c1ccc(CNC(=O)[C@H]2CN(c3ccc(C(=O)O)nc3)CCN2S(=O)(=O)c2ccc(OC(F)(F)F)cc2)cc1    < 100 nM
Cc1nc(N2CCN(S(=O)(=O)c3ccc(OC(F)(F)F)cc3)[C@@H](C(=O)NCc3ccc(C(C)C)cc3)C2)sc1C(=O)NCC(=O)OC(C)(C)C    < 100 nM
CC(=O)N1CCN(S(=O)(=O)c2ccc(C(C)C)cc2)C(C(=O)NCc2ccccc2N(C)C)C1 (centres unmarked)    > 1000 nM
COC(=O)CCc1cc(S(=O)(=O)N2CCN(C(C)=O)C[C@@H]2C(=O)NCc2ccc(C(C)C)cc2)ccc1OC    100 to 1000 nM
CCCc1ccc(S(=O)(=O)N2CCN(c3nc(C)c(C(=O)O)s3)C[C@@H]2C(=O)NCc2ccc(C(C)C)cc2)cc1    < 100 nM
CC(=O)N1CCc2nc(N3CCN(S(=O)(=O)c4ccc(OC(F)(F)F)cc4)[C@@H](C(=O)NCc4ccc(C(C)(C)C)cc4)C3)sc2C1    < 100 nM
CCCc1ccc(S(=O)(=O)N2CCN(c3nc(C)c(C(=O)O)s3)C[C@@H]2C(=O)NCc2ccc(C(C)C)cc2)s1    < 100 nM
